FYI, the data here is from paper PMC3185947.

Assay: clinical;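 note: pharmacokinetic parameters derived by non-compartmental analysis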
Settings: human, in vivo, 425 mg
READOUT_LABEL: Cmax (ng/mL)
Hi! Could you send only the number? It should be in ng/mL, unit omitted.

Quote Cmax reported for C#Cc1cccc(Nc2ncnc3cc(OCCOC)c(OCCOC)cc23)c1 [erlotinib] please.
2780

---

Experiment: clinical
Settings: human, in vivo, 150 mg
READOUT_LABEL: Cmax (ng/mL)
Hi! Could you send only the number? It should be in ng/mL, unit omitted.

Quote Cmax reported for C#Cc1cccc(Nc2ncnc3cc(OCCOC)c(OCCOC)cc23)c1 please.
1910

---

Assay: clinical
Details: human, in vivo, 475 mg
READOUT_LABEL: Tmax (h)
Hi! Could you send only the number? It should be in h, unit omitted.

Quote Tmax reported for C#Cc1cccc(Nc2ncnc3cc(OCCOC)c(OCCOC)cc23)c1 [erlotinib] please.
4.2

---

Assay: clinical
Conditions: human, in vivo, 225 mg
READOUT_LABEL: Cmax
Give me the value, and tack the unit on after it.

Quote Cmax reported for C#Cc1cccc(Nc2ncnc3cc(OCCOC)c(OCCOC)cc23)c1 [erlotinib] please.
2540 ng/mL

---

Assay: clinical
Conditions: human, in vivo, 375 mg
READOUT_LABEL: Cmax (ng/mL)
Hi! Could you send only the number? It should be in ng/mL, unit omitted.

Quote Cmax reported for C#Cc1cccc(Nc2ncnc3cc(OCCOC)c(OCCOC)cc23)c1 [erlotinib] please.
2770

---

Assay: clinical
Settings: human, in vivo, 275 mg
READOUT_LABEL: Cmax

Quote Cmax reported for C#Cc1cccc(Nc2ncnc3cc(OCCOC)c(OCCOC)cc23)c1 [erlotinib] please.
2190 ng/mL

---

Test: clinical
Details: human, in vivo, 400 mg
READOUT_LABEL: Tmax (h)
Hi! Could you send only the number? It should be in h, unit omitted.

Quote Tmax reported for C#Cc1cccc(Nc2ncnc3cc(OCCOC)c(OCCOC)cc23)c1 please.
2

---

Test: clinical
Settings: human, in vivo, 200 mg
READOUT_LABEL: Tmax (h)
Hi! Could you send only the number? It should be in h, unit omitted.

Quote Tmax reported for C#Cc1cccc(Nc2ncnc3cc(OCCOC)c(OCCOC)cc23)c1 please.
2

---

Assay: clinical
Conditions: human, in vivo, 300 mg
READOUT_LABEL: Cmax (ng/mL)
Hi! Could you send only the number? It should be in ng/mL, unit omitted.

Quote Cmax reported for C#Cc1cccc(Nc2ncnc3cc(OCCOC)c(OCCOC)cc23)c1 please.
2940

---

Test: clinical
Details: human, in vivo, 450 mg
READOUT_LABEL: Cmax (ng/mL)
Hi! Could you send only the number? It should be in ng/mL, unit omitted.

Quote Cmax reported for C#Cc1cccc(Nc2ncnc3cc(OCCOC)c(OCCOC)cc23)c1 [erlotinib] please.
4100

---

Test: clinical
Settings: human, in vivo, 300 mg
READOUT_LABEL: Tmax (h)
Hi! Could you send only the number? It should be in h, unit omitted.

Quote Tmax reported for C#Cc1cccc(Nc2ncnc3cc(OCCOC)c(OCCOC)cc23)c1 please.
2

---

Assay: clinical
Details: human, in vivo, 475 mg
READOUT_LABEL: Cmax
Give me the value, and tack the unit on after it.

Quote Cmax reported for C#Cc1cccc(Nc2ncnc3cc(OCCOC)c(OCCOC)cc23)c1 please.
2200 ng/mL
